# assayed-target: human MASP-2 catalytic fragment (Homo sapiens, UniProt O00187)
# Construct: catalytic enzyme fragments containing the three C-terminal domains: CCP1-CCP2-SP; made in house
# assay-method-text: Surface plasmon resonance kinetics and affinity on immobilized human MASP-2 catalytic fragment
# Format: binding
# test-conditions: Human MASP-2 catalytic fragment, SPR; read-out: KD
Bridges are numbered along the chain shown (N, C = ends). Where no end group is shown, it is not given here.
parameter: Kd (nM)
Quick note: give the figure in nM, leave out the unit.

Enquiry: Find the recorded Kd belonging to KPDFCFLENDPGPCRAAKRRYFYNNQTKQCERFYYGGCLGNMNNFVTLEECKNICEDG (disulfide 5-55, 14-38, 30-51) [EVO22a] and report it.
Return: 0.045
